Measured values drawn from ChEMBL document CHEMBL1201862 for this set.

assay.explanation: P. falciparum Dd2 growth inhibitors, dose response, SYBR Green, cherry-picked samples (AID 1159567)
Format: functional, cell-based
Activity calls are given as the source filed them.
For each entry below, report its AC50 value.

# AC50 of COc1cccc(C#Cc2ccc([C@H]3[C@@H](C#N)N(C(=O)C4CCCC4)[C@@H]3CO)cc2)c1 = 5.62 µM (active)

# AC50 of C[C@H]1CN([C@@H](C)CO)C(=O)c2c(c3ccccc3n2C)-c2ccccc2CO[C@@H]1CN(C)Cc1ccc(-c2ccccc2)cc1 = 2.75 µM (active)

# AC50 of CCC(=O)N1CC2(C1)[C@@H](c1ccc(-c3cccc(OC)c3)cc1)[C@@H](CO)N2C(C)=O = 22.2 µM (active)

# AC50 of Fc1cccc(-c2ccc([C@@H]3[C@@H]4CN(Cc5cncnc5)C[C@H]3N4)cc2)c1 = 1.36 µM (active)

# AC50 of CO[C@@H]1CN(C)C(=O)c2cc(NC(=O)c3ccc(-c4ccccc4)cc3)ccc2OC[C@@H](C)NC[C@@H]1C = 7.25 µM (active)

# AC50 of COc1cccc(NC(=O)Nc2ccc3c(c2)C(=O)N(C)C[C@@H](OC)[C@H](C)CN[C@@H](C)CO3)c1 = 22.8 µM (active)

---

For each entry below, report its IC50 value.
Activity calls are given as the source filed them.

Bench note, Estrogen receptor beta (Homo sapiens, UniProt Q92731): entry CCCNC(=O)c1ccc(-c2nc3ccccc3s2)s1 , its IC50 = > 50 µM (not active)

Bench note, Estrogen receptor beta (Homo sapiens, UniProt Q92731): entry O=C(c1cc(-c2ccco2)on1)N1CCc2ccccc2C1 , its IC50 = > 50 µM (not active)

Bench note, Estrogen receptor beta (Homo sapiens, UniProt Q92731): entry O=C(CNC(=O)c1ccco1)OCc1ccc(Cl)cc1 , its IC50 = > 50 µM (not active)

Bench note, Estrogen receptor beta (Homo sapiens, UniProt Q92731): entry NS(=O)(=O)c1ccc(CCNC2CC(=O)N(CCc3ccccc3)C2=O)cc1 (stereo unspecified) , its IC50 = > 50 µM (not active)

Bench note, Estrogen receptor beta (Homo sapiens, UniProt Q92731): entry COC(=O)c1[nH]c2ccc(C)cc2c1NC(=O)CN1CCCc2ccccc21 , its IC50 = < 1.56 µM (active)

Bench note, Estrogen receptor beta (Homo sapiens, UniProt Q92731): entry CCn1cc(SCC(=O)NCc2ccc3c(c2)OCO3)c2ccccc21 , its IC50 = > 50 µM (not active)

---

For each entry below, report its EC50 value.
measurement.target: Short transient receptor potential channel 4 (Mus musculus)
Sequence (Q9QUQ5 whole entry): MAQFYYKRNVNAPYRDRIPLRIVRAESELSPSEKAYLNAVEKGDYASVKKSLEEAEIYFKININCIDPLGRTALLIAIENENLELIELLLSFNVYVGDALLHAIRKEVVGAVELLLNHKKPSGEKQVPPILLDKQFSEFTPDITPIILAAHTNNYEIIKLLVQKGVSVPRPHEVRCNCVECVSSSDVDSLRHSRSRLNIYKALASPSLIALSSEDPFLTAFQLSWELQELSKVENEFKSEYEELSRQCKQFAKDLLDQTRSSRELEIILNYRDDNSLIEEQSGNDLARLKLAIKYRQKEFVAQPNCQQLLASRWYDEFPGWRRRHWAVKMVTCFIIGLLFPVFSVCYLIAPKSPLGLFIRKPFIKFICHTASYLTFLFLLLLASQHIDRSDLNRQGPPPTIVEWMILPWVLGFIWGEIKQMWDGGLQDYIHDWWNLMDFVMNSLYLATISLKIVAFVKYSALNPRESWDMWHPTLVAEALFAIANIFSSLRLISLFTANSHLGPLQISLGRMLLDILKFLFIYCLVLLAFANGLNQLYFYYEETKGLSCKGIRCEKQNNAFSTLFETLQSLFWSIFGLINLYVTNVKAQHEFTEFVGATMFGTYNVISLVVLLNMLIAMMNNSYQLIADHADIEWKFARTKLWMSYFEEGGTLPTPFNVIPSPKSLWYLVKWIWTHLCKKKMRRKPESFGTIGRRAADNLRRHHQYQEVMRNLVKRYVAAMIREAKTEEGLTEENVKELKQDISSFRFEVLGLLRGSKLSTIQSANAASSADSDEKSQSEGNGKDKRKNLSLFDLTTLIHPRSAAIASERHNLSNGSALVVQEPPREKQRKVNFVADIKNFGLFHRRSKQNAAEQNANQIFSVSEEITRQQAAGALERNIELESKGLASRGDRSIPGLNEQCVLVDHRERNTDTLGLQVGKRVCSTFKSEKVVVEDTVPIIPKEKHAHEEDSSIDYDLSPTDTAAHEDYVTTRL
assay.explanation: block of DAMGO-driven TRPC4 calcium entry – cell-based, HEK293 TRPC4/mu-opioid, Fluo-4 calcium, dose response (AID 434942);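 further: potency of inhibitors blocking the TRPC4 calcium response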
Assay type: functional
The source made the active and inactive calls.

# EC50 of Cc1ccccc1C(=O)Nc1c(C(=O)N(CCN(C)C)Cc2ccco2)oc2ccccc12 = 0.473 µM (active)

# EC50 of Cc1[nH]n(C)c(=O)c1C(=O)c1c(-c2c(Cl)cccc2Cl)noc1C = 4.22 µM (active)

# EC50 of O=[N+]([O-])c1ccc(O)c(C2=NNC(c3ccccc3F)C2)c1 (centres undefined) = 15 µM (active)

# EC50 of O=C(Cc1cccc2ccccc12)Nc1ccc(Br)cc1C(=O)O = 5.96 µM (active)
